Tested on: Staphylococcus aureus cultures
Assay: Broth dilution MIC in trypticase soy broth, low and high NaCl (Example 10)
Assay type: cell-based
Details: Staphylococcus aureus, culture 3136; TSB, table part marked c; read-out: MIC
Experimental: This example compares the antibiotic activities of methicillin, cephalothin and cephaloridine with the compounds of Examples 1, 2 and 3, in broth dilution tests. The MIC values, in μg/ml., are against the same Staphylococcus aureus cultures described in Example 9, except that in this example the cultures were grown in trypticase soy broth (TSB). […]
Outcome measure: MIC (µg/mL)
The figure you give is taken to be in µg/mL; do not add the unit.

Some compounds with recorded MIC:
CC(=O)OCC1=C(C(=O)O)N2C(=O)C(NC(=O)CSc3ccc(Cl)c(Cl)c3)C2SC1 (centres unmarked) [Example 1]    2
CC(=O)OCC1=C(C(=O)O)N2C(=O)C(NC(=O)CSc3cc(Cl)ccc3Cl)C2SC1 (centres unmarked) [Example 2]    4
O=C(Cc1cccs1)N[C@@H]1C(=O)N2C(C(=O)[O-])=C(C[n+]3ccccc3)CS[C@H]12 [Cephaloridine, cephaloridine, reference compound]    16
CC(=O)OCC1=C(C(=O)O)N2C(=O)C(NC(=O)CSc3cc(Cl)cc(Cl)c3)C2SC1 (centres unmarked) [Example 3]    2

Query compound follows.
Prompt: # lookup: MIC of COc1cccc(OC)c1C(=O)N[C@@H]1C(=O)N2[C@@H]1SC(C)(C)[C@@H]2C(=O)O [Methicillin, methicillin]
Response: 128

* * *

Tested on: Staphylococcus aureus cultures
Assay: Broth dilution MIC in trypticase soy broth, low and high NaCl (Example 10)
Type: cell-based
Conditions: Staphylococcus aureus, culture Kavarnick 1138501; TSB, table part marked c; read-out: MIC
Outcome measure: MIC
Quick note: unit goes after the number.

Some compounds with recorded MIC:
O=C(Cc1cccs1)N[C@@H]1C(=O)N2C(C(=O)[O-])=C(C[n+]3ccccc3)CS[C@H]12 [Cephaloridine, cephaloridine, reference compound]    16 µg/mL
CC(=O)OCC1=C(C(=O)O)N2C(=O)C(NC(=O)CSc3ccc(Cl)c(Cl)c3)C2SC1 (centres unmarked)    2 µg/mL
COc1cccc(OC)c1C(=O)N[C@@H]1C(=O)N2[C@@H]1SC(C)(C)[C@@H]2C(=O)O    128 µg/mL
CC(=O)OCC1=C(C(=O)O)N2C(=O)C(NC(=O)CSc3cc(Cl)ccc3Cl)C2SC1 (centres unmarked)    2 µg/mL

Query compound follows.
Prompt: Can you look up MIC on Staphylococcus aureus cultures for CC(=O)OCC1=C(C(=O)O)N2C(=O)C(NC(=O)CSc3cc(Cl)cc(Cl)c3)C2SC1 (centres unmarked) ?
Response: 1 µg/mL

* * *

Tested on: Staphylococcus aureus cultures
Test: Agar dilution susceptibility test, phenylthioacetyl cephalosporins vs methicillin resistant S. aureus (Example 9)
Type: cell-based
Conditions: Staphylococcus aureus, culture S61; table part marked b; read-out: MIC
Outcome measure: MIC (µg/mL)
The figure you give is taken to be in µg/mL; do not add the unit.

Prompt: # lookup: MIC of CC(=O)OCC1=C(C(=O)O)N2C(=O)C(NC(=O)CSc3cc(Cl)ccc3Cl)C2SC1 (centres unmarked)
Response: 0.5

* * *

Test system: Staphylococcus aureus cultures
Test: Agar dilution susceptibility test, phenylthioacetyl cephalosporins vs methicillin resistant S. aureus (Example 9)
Format: cell-based
Details: Staphylococcus aureus, culture 3132; table part marked b; read-out: MIC
Outcome measure: MIC (µg/mL)
The figure you give is taken to be in µg/mL; do not add the unit.

O=C(Cc1cccs1)N[C@@H]1C(=O)N2C(C(=O)[O-])=C(C[n+]3ccccc3)CS[C@H]12 [Cephaloridine, cephaloridine, reference compound]    2

Prompt: Can you look up MIC on Staphylococcus aureus cultures for CC(=O)OCC1=C(C(=O)O)N2C(=O)C(NC(=O)CSc3cc(Cl)cc(Cl)c3)C2SC1 (centres unmarked) ?
Response: 0.25

Prompt: Can you look up MIC on Staphylococcus aureus cultures for CC(=O)OCC1=C(C(=O)O)N2C(=O)C(NC(=O)CSc3cc(Cl)ccc3Cl)C2SC1 (centres unmarked) ?
Response: 0.5

Prompt: Can you look up MIC on Staphylococcus aureus cultures for COc1cccc(OC)c1C(=O)N[C@@H]1C(=O)N2[C@@H]1SC(C)(C)[C@@H]2C(=O)O ?
Response: 8

Prompt: Can you look up MIC on Staphylococcus aureus cultures for CC(=O)OCC1=C(C(=O)O)N2C(=O)C(NC(=O)CSc3ccc(Cl)c(Cl)c3)C2SC1 (centres unmarked) ?
Response: 0.5
